Source of measurements: the supplement of paper PMC9112550

test system: Escherichia coli TOP10; experiment: shrunken log2 fold change of peptide-encoding DNA abundance (4.5 h post-induction vs induction); higher = less antimicrobial activity (less host growth inhibition); settings: time post-induction: 4.5 h; library: site-saturation at positions 5, 18, 19, 20;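 note: peptides expressed intracellularly from a pBAD plasmid library in pooled LB shake-flask culture, induced with 0.3% L-arabinose, DNA abundance read by NGS, three biological replicates, DESeq2 with apeglm shrinkage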
Give shrunken log2 fold change for every item shown.
Give bare numbers.

Answered examples (5):
> print(dat)
          polymer.sequence              assay.readout  reported
1  RRIRPRPPRLPRPRPRPEYWPRP  shrunken log2 fold change    -0.035
2  RRIRNRPPRLPRPRPRPVCTPRP  shrunken log2 fold change    -0.157
3  RRIRLRPPRLPRPRPRPLLDPRP  shrunken log2 fold change       0.3
4  RRIRPRPPRLPRPRPRPYHVPRP  shrunken log2 fold change    -0.199
5  RRIRARPPRLPRPRPRPIGVPRP  shrunken log2 fold change     0.892

I have 6 sequences here; please give me shrunken log2 fold change for each one.
1. RRIRERPPRLPRPRPRPKVAPRP
2. RRIRLRPPRLPRPRPRPAQCPRP
3. RRIRARPPRLPRPRPRPWAFPRP
4. RRIRFRPPRLPRPRPRPFWEPRP
5. RRIRERPPRLPRPRPRPLREPRP
6. RRIRGRPPRLPRPRPRPCGIPRP

[0.0804, -0.23, 0.222, -0.193, 0.385, 0.206]

I have 3 sequences here; please give me shrunken log2 fold change for each one.
1. RRIRARPPRLPRPRPRPVYPPRP
2. RRIRWRPPRLPRPRPRPMPFPRP
3. RRIRYRPPRLPRPRPRPSLQPRP

1: 0.0412; 2: -0.133; 3: -0.126

I have 6 sequences here; please give me shrunken log2 fold change for each one.
1. RRIRWRPPRLPRPRPRPAIHPRP
2. RRIRDRPPRLPRPRPRPHYHPRP
3. RRIRERPPRLPRPRPRPLWEPRP
4. RRIRQRPPRLPRPRPRPFAPPRP
5. RRIRGRPPRLPRPRPRPDAWPRP
6. RRIRVRPPRLPRPRPRPCFPPRP

1: 0.039; 2: -0.806; 3: -0.281; 4: 0.0897; 5: 1.17; 6: 0.228
